- Test system: SR leukemia
- experimentSummary: NCI-60 one-dose screen, 48 h
- measurementConditions: 10 µM unless noted
About 83,000 compounds went through this panel and 20% of them were active in at least one assay; those are over-represented in the sample as a whole. The source made the active and inactive calls. Rule for the calls: active = growth percent below 10; inactive = the rest.
Labels: true (1) = active, false (0) = inactive

* CC(C)(C)n1cc(-c2ccnc(NCCNS(=O)(=O)c3cccc4ccccc34)c2)c(-c2cccc(F)c2)n1 | true (1)
* COc1ccc(-c2nnc3n(C)c(=O)c4ccccc4n23)cc1N | false (0)
* Cn1cc(-c2nonc2-c2c[nH]c3ccc(Br)cc23)c2cc(Br)ccc21 | false (0)
* S=C(Nc1ccc(-c2nc(N3CCOCC3)c3cccn3n2)cc1)Nc1cccnc1 | false (0)
* CNC(=O)c1c(NC(=O)c2ccc(C(F)(F)F)cc2)sc2c1CCC(=O)C2 | true (1)
* Cc1cc2c(O)c(-c3cccc(Cl)c3)c3sc(=O)oc3c2cc1C | false (0)
* Cc1ccc2c3c(c(=O)[nH]c2c1)C1(C(C#N)=C(N)O3)c2cc(Br)ccc2-c2ccc(Br)cc21 | false (0)

###

- Test system: KM12 colon
- experimentSummary: NCI-60 one-dose screen, 48 h
- measurementConditions: 10 µM unless noted
This is part of a sample that, as a whole, favours compounds with a hit. Of some 83,000 tested, about 20% had one in any assay. The source made the active and inactive calls. How the source made its calls: active means growth percent below 10; inactive means the rest.
Labels: Y = active, N = inactive

• CCCCC(=O)Nc1ncc(Cc2ccc(Cl)cc2)s1 = N
• C/C(=C(/c1ccc(Cl)cc1)c1ccc(OCCN2CCCC2)cc1)c1ccc(Cl)cc1 = N
• O=C1/C(=C/c2ccc(Cl)cc2)COc2ccc(O)cc21 = N
• CCN1CC(=O)N(/N=C2\C(=O)Nc3ccccc32)C1=S = N
• N=C(N)c1ccc(-c2ccc(-c3ccc(F)cc3)o2)o1 = Y
• COc1cc(/C=C/C(=O)c2cccc(Nc3nc(Nc4ccccc4)nc(Nc4ccccc4)n3)c2)cc(OC)c1OC = N
• CN([O-])c1nc(N(C)[O-])nc(N2CCOCC2)n1.CN([O-])c1nc(N(C)[OH2+])nc(N2CCOCC2)n1.[Fe+3] = N
• COc1cc(N2C(=O)[C@H](O)C2c2ccc(SC)cc2)cc(OC)c1OC (some centres not stated) = N
• Cc1nc2c(=O)[nH]c(SCC(=O)Nc3cccc(F)c3)nc2[nH]c1=O = N
• OB(O)c1cccc(-c2nc3ccc4[nH]ncc4c3c3c2CCCC3)c1 = N
• COC1C[C@H](O[C@@H]2C[C@H](O[C@@H]3C[C@H](O[C@@H]4C(=O)c5c(cc6cc(O[C@H]7C[C@@H](O[C@H]8C[C@@H](O)[C@H](O)C(C)O8)[C@H](O)C(C)O7)c(C)c(O)c6c5O)C[C@H]4C(OC)C(=O)[C@@H](O)[C@@H](C)O)OC(C)[C@H]3O)OC(C)[C@@H]2O)OC(C)[C@@H]1O (some centres not stated) = Y
• C#CCOc1ccc2ncnc(Nc3cccc(NC(=O)C=C)c3)c2c1 = N
• Oc1c(Cl)cc(Cl)cc1/C=N/Nc1nnc(N/N=C/c2cc(Cl)cc(Cl)c2O)c2ccccc12 = Y
• Cn1ccc2c3c(ccc21)CC3=O = N
• O=C(CCCCCCN1CC(=O)N2[C@H](c3cc(Br)cs3)c3[nH]c4ccccc4c3C[C@H]2C1=O)NO = N
• COC(=O)[C@]1(C)CCC[C@]2(C)[C@H]3C[C@H]4C(C(C)C)=C[C@]3(CC[C@H]21)[C@H]1[C@@H]4[C@@H](OCCC#N)CC[C@@H]1OCCC#N = N
• Cn1ccnc1C(=O)C(=O)Nc1ccc(CC(=O)Nc2ccccc2)cc1 = N

###

Each entry below carries its recorded growth.
- Tested on: HT29 colon
- experimentSummary: NCI-60 one-dose screen, 48 h (100 = growth as untreated, 0 = no growth, -100 = all killed)
- measurementConditions: 10 µM unless noted
The panel holds about 83,000 compounds, 20% with a hit somewhere; the sample as a whole holds those more often.
experimentalEndpoint: growth (%)

• COc1ccc(-c2csc(NC(=O)CSc3nc(-c4ccccc4)cc(=O)[nH]3)n2)cc1 = 85.9
• O=C1c2cccnc2C(=O)c2c1c(C(=O)NCCn1ccnc1)c1ccccn21 = 7.18
• COc1ccc(/C=C2\C(=O)N=C3N2NC(c2cc(Br)ccc2O)C=C(C)N3c2ccccc2)cc1 (stereo unspecified) = 106
• Oc1c(Cl)cc(Cl)cc1/C=N/Nc1nnc(N/N=C/c2cc(Cl)cc(Cl)c2O)c2ccccc12 = 23.7
• CN(C)CCCC1(c2ccc(F)cc2)OCc2cc(-c3cccc4[nH]ccc34)ccc21 (stereo unspecified) = -31.3
• COc1ccc2nc(NC(=O)CSc3nnc4n3S(=O)(=O)c3ccccc3N4C)sc2c1 = 114
• CCN1C(=O)N(CC)C2C1NN=c1s/c(=C\c3cccc([N+](=O)[O-])c3)c(=O)n12 (stereo unspecified) = 5.6
• CC1(C)c2[nH]c3ccccc3c2C[C@]2(C)[C@H]3CC=C4[C@@H]5C[C@@](C)(C(N)=O)CC[C@]5(C)CC[C@@]4(C)[C@]3(C)CC[C@@H]12 = 62.7
• O=C(CSc1nc2ccc([N+](=O)[O-])cc2[nH]1)Nc1cccc(C(F)(F)F)c1 = 11.3
• Cc1ccc2c3c(c(=O)[nH]c2c1)C1(C(C#N)=C(N)O3)c2cc(Br)ccc2-c2ccc(Br)cc21 = -14.7
• CCCC(=O)NC(c1ccc2c(c1)OCO2)c1ccc2cccnc2c1O (stereo unspecified) = 25.4
• N#Cc1cccc(F)c1 = 104
• OCCOCCN(Cc1ccccn1)Cc1cc(I)cc(I)c1O = 98.5
• C=CCc1c2c(c(OC)c3ccoc13)C(=O)/C(=C/c1ccccc1OC)O2 = 44.6
• COC1C[C@H](O[C@@H]2C[C@H](O[C@@H]3C[C@H](O[C@@H]4C(=O)c5c(cc6cc(O[C@H]7C[C@@H](O[C@H]8C[C@@H](O)[C@H](O)C(C)O8)[C@H](O)C(C)O7)c(C)c(O)c6c5O)C[C@H]4C(OC)C(=O)[C@@H](O)[C@@H](C)O)OC(C)[C@H]3O)OC(C)[C@@H]2O)OC(C)[C@@H]1O (stereo partly specified) = -8.54
• COc1ccc(-c2nnc3n(C)c(=O)c4ccccc4n23)cc1N = 4.95

###

Each entry below carries its recorded growth.
- Test system: HCC-2998 colon
- experimentSummary: NCI-60 one-dose screen, 48 h (100 = growth as untreated, 0 = no growth, -100 = all killed)
- measurementConditions: 10 µM unless noted
This is part of a sample that, as a whole, favours compounds with a hit. Of some 83,000 tested, about 20% had one in any assay.
experimentalEndpoint: growth (%)

- O=C(c1cc2ccccc2o1)c1nn(-c2ccccc2)/c(=N/N=Cc2cn(-c3ccccc3)nc2-c2cc3ccccc3oc2=O)s1: 104
- O=Cc1ccc([N+](=O)[O-])s1: 100
- CN(C)c1ccc(/C=C/C(=O)c2ccc(-n3cc(CN4CCN(c5cc6c(cc5F)c(=O)c(C(=O)O)cn6C5CC5)CC4)nn3)cc2)cc1: 79.3
- O=C1c2ccc3c4ccc5c6c(ccc(c7ccc(c2c37)C(=O)N1CCC[P+](c1ccccc1)(c1ccccc1)c1ccccc1)c64)C(=O)N(CCC[P+](c1ccccc1)(c1ccccc1)c1ccccc1)C5=O: 25.5
- c1cc2[nH]ncc2cc1-c1nc2ccc3[nH]ncc3c2c2c1CCCC2: 13.8
- Cc1cccc2c1NC(=O)C2(c1ccc(O)cc1)c1ccc(O)cc1: 42.9
- C=CC(=O)NCc1ccc(Nc2nccc(-c3ccc(N4CCCC4)c(C#N)c3)n2)cc1: 71.3
- CC(=O)N1N=C(c2ccc(Nc3nc(Nc4ccc(Cl)cc4)nc(Nc4ccc(Cl)cc4)n3)cc2)CC1c1ccco1 (centres undefined): 128
- Oc1ccc(CN2CCC(N3CCCCC3)CC2)c2cccnc12: 32.2

###

- System: TK-10 renal
- experimentSummary: NCI-60 one-dose screen, 48 h
- measurementConditions: 10 µM unless noted
About 83,000 compounds went through this panel and 20% of them were active in at least one assay; those are over-represented in the sample as a whole. Calls of active or inactive are those of the source. How the source made its calls: active means growth percent below 10; inactive means the rest.
Labels: active, inactive

• c1cc2[nH]ncc2cc1-c1nc2ccc3[nH]ncc3c2c2c1CCCC2 = active
• O=C1C(Cl)=C(Oc2ccccc2)C(=O)c2ccccc21 = inactive
• CC1=C(Nc2ccc(N3CCN(C)CC3)cc2)C(=O)c2cncnc2C1=O = inactive
• CCOC(=O)c1cn2ncnc(Oc3ccc(NC(=O)NC4CCCCC4)c(Cl)c3)c2c1C = inactive
• N#Cc1cccc(F)c1 = inactive

###

- System: SR leukemia
- experimentSummary: NCI-60 one-dose screen, 48 h (100 = growth as untreated, 0 = no growth, -100 = all killed)
- measurementConditions: 10 µM unless noted
The panel holds about 83,000 compounds, 20% with a hit somewhere; the sample as a whole holds those more often.
growth below 60% gives not fulfilled; growth at or above it gives fulfilled.

• Cc1cc2c(O)c(-c3cc(Cl)ccc3Cl)c3sc(=O)oc3c2cc1C = not fulfilled
• O=C(Cc1ccccc1)Nc1nc(O)c(/C=C2\C(=O)C=Cc3ccccc32)s1 = fulfilled
• CCc1ccc(C(=O)/C=C/C23c4ccccc4C(c4ccccc42)C2C(=O)NC(=O)C23)cc1 (configuration not stated) = not fulfilled
• CO/N=C(/C)c1ccc(NC(=O)CSc2nnc(-c3ccncc3)n2-c2ccccc2)cc1 = fulfilled
• CN(C)CCNC(=O)c1cccc(-c2cnc3ccc(-c4ccc5c(c4)OCO5)nn23)c1 = not fulfilled
• CCCCCCC1(C)NCCO1 (configuration not stated) = fulfilled
• O=C(O)/C(=C\c1ccc(Cl)cc1)c1ccc(Cl)cc1 = fulfilled
• O=C(c1ccccc1)C1C(=O)N2C(=S)N(c3ccccc3)C(=O)C2C1c1ccc(Cl)cc1 (configuration not stated) = fulfilled
• Clc1ccc(Nc2nnc(COc3ccccc3)c3ccccc23)cc1 = not fulfilled
• COc1ccc(CC(C#N)c2cc3ccccc3[nH]2)cc1 (configuration not stated) = fulfilled
• O=C(O)c1ccc(-n2cc(/C=N/Nc3ccc(F)cc3)c(-c3cc4ccccc4oc3=O)n2)cc1 = not fulfilled
